biological target: EGFR (Homo sapiens, UniProt P00533); experiment: BLI
test-readout: pKd
Give bare numbers, as −log10 of the molar value.

Let me know recorded pKd for SFMPLSIPIMCKMLSKC (biotinylated EGFR) [SC17-2] , thanks.
6.64
